Hey, just so you know, these numbers are from ChEMBL document CHEMBL1123155.

This section lists IC50 readings for Serine protease 1 (Homo sapiens, UniProt P07477).
Kindly answer with a numeric value in nM, unit omitted.

# example entries with known answers
N=C(N)Nc1ccc(C(=O)Oc2ccc(C(F)(F)F)cc2)cc1 ... 16.4
CCOC(=O)c1ccc(OC(=O)c2ccc(NC(=N)N)cc2)cc1.Cl ... 1.6

Next molecule, IC50 to be filled in.
(Q) Please state recorded IC50 (tested on Serine protease 1 (Homo sapiens, UniProt P07477)) of Cl.N=C(N)Nc1ccc(C(=O)Oc2cccc3cccnc23)cc1
Sequence (P07477 whole entry): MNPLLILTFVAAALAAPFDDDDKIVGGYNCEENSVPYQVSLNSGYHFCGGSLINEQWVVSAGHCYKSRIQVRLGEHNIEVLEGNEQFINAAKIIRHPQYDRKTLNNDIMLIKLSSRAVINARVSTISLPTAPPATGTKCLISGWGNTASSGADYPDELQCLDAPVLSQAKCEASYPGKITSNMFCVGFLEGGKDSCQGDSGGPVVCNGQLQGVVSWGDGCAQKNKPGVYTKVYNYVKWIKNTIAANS
(A) 27.7

---

This section lists pIC50 readings for Acrosin (Homo sapiens, UniProt P10323).
pIC50 here is simply -log10 of the concentration when that concentration is written in mol/L.

# example entries with known answers
CCOC(=O)c1ccc(OC(=O)c2ccc(NC(=N)N)cc2)cc1.Cl ... 8.03
CC(=O)Nc1ccc(OC(=O)c2ccc(NC(=N)N)cc2)cc1.Cl ... 8.10
Cc1ccc(C(C)C)c(OC(=O)c2ccc(NC(=N)N)cc2)c1.Cc1ccc(S(=O)(=O)O)cc1 ... 6.52
Cl.N=C(N)Nc1ccc(C(=O)Oc2cccc3cccnc23)cc1 ... 7.70
COC(=O)c1ccccc1OC(=O)c1ccc(NC(=N)N)cc1 ... 7.89

(Q) Please state recorded pIC50 (tested on Acrosin (Homo sapiens, UniProt P10323)) of Cl.N=C(N)Nc1ccc(C(=O)Oc2ccccc2C(N)=O)cc1
Sequence (P10323 20-42 limits assumed): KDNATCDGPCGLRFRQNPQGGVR
Sequence (P10323 43-343 limits assumed): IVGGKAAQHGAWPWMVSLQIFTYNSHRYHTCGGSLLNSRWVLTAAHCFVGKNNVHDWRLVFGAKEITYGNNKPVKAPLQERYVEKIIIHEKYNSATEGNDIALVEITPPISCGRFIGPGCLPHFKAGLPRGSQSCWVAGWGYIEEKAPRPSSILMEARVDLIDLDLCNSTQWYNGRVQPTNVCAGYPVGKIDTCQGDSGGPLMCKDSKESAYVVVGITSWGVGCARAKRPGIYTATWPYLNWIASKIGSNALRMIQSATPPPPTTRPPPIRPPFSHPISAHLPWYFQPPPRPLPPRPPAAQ
(A) 6.52

(Q) Please state recorded pIC50 (tested on Acrosin (Homo sapiens, UniProt P10323)) of COC(=O)c1ccc(OC(=O)c2ccc(NC(=N)N)cc2)cc1.Cl
(A) 9.17

(Q) Please state recorded pIC50 (tested on Acrosin (Homo sapiens, UniProt P10323)) of N#Cc1ccc(OC(=O)c2ccc(NC(=N)N)cc2)cc1
(A) 8.92

(Q) Please state recorded pIC50 (tested on Acrosin (Homo sapiens, UniProt P10323)) of N=C(N)Nc1ccc(C(=O)Oc2ccc(Cl)cc2)cc1
(A) 8.52

(Q) Please state recorded pIC50 (tested on Acrosin (Homo sapiens, UniProt P10323)) of CCCCOc1ccc(OC(=O)c2ccc(NC(=N)N)cc2)cc1
(A) 7.94

(Q) Please state recorded pIC50 (tested on Acrosin (Homo sapiens, UniProt P10323)) of C=CCc1ccc(OC(=O)c2ccc(NC(=N)N)cc2)c(OC)c1
(A) 7.86

(Q) Please state recorded pIC50 (tested on Acrosin (Homo sapiens, UniProt P10323)) of N=C(N)Nc1ccc(C(=O)Oc2ccccc2)cc1
(A) 8.25

(Q) Please state recorded pIC50 (tested on Acrosin (Homo sapiens, UniProt P10323)) of COc1ccc(OC(=O)c2ccc(NC(=N)N)cc2)cc1
(A) 7.79

(Q) Please state recorded pIC50 (tested on Acrosin (Homo sapiens, UniProt P10323)) of CCCCCCc1ccc(OC(=O)c2ccc(NC(=N)N)cc2)cc1O
(A) 7.00

---

- Method description: Lethal dose that produces death in 50% of mice within 24 hr after acute treatment
- Format: toxicity, organism-based
- Assay conditions: mouse, in vivo
Property label: LD50 at 24 h (mg/kg)
Kindly answer with a numeric value in mg/kg, unit omitted.

# example entries with known answers
CCOC(=O)c1ccc(OC(=O)c2ccc(NC(=N)N)cc2)cc1.Cl ... 300
Cl.N=C(N)Nc1ccc(C(=O)Oc2cccc3cccnc23)cc1 ... 240

(Q) Looking for the measured LD50 at 24 h of CC(=O)Nc1ccc(OC(=O)c2ccc(NC(=N)N)cc2)cc1.Cl , can you help?
(A) 850

(Q) Looking for the measured LD50 at 24 h of CCCCCCc1ccc(OC(=O)c2ccc(NC(=N)N)cc2)cc1O , can you help?
(A) 620

(Q) Looking for the measured LD50 at 24 h of C=CCc1ccc(OC(=O)c2ccc(NC(=N)N)cc2)c(OC)c1 , can you help?
(A) 870

(Q) Looking for the measured LD50 at 24 h of COC(=O)c1ccccc1OC(=O)c1ccc(NC(=N)N)cc1 , can you help?
(A) 750

(Q) Looking for the measured LD50 at 24 h of COC(=O)c1ccc(OC(=O)c2ccc(NC(=N)N)cc2)cc1.Cl , can you help?
(A) 235
